Tested on: HEK293 Tau-BiFC cells
Test: Cell viability of tau-BiFC cells (number of nuclei)
Format: cell-based, human
Details: Tau-BiFC^ON by forskolin (30 μM); 48 h of treatment

| COMPOUND | GI50, µM |
| --- | --- |
| CN(C)c1ccc2c(c1)Sc1cc(N(C)C)ccc1N2.CS(=O)(=O)O.CS(=O)(=O)O [LMTM, leucomethylene blue mesylate] | 6.4 |

###

Biological target: tau (Homo sapiens)
Sequence (P10636 1-441 isoform P10636-8): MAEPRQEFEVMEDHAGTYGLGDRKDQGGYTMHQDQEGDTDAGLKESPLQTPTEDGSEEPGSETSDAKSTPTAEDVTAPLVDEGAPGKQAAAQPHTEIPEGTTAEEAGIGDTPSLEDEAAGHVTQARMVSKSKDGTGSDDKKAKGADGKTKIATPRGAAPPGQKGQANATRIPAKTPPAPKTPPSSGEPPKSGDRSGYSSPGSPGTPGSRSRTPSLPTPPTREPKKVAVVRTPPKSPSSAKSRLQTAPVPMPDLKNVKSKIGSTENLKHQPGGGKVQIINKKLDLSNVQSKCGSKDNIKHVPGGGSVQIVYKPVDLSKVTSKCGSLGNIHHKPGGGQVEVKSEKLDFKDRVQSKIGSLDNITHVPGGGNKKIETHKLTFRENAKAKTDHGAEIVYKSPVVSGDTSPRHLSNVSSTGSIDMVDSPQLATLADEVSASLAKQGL
Sequence (P10636 1-441 isoform P10636-8): as above
Assay: Tau-BiFC response in tau-BiFC cells (high-content imaging)
Type: cell-based
Parameters: expressed in transfected cells; host or cells: HEK293 Tau-BiFC cells (G418-selected)
Conditions: Tau-BiFC^ON by forskolin (30 μM); 48 h of treatment
pEC50: −log10 of the molar value.
ASSAY_READOUT: pEC50

| MOLECULE | ASSAY_READOUT | RECORDED_NUMBER |
| --- | --- | --- |
| C[C@@H]1CC(=O)NN=C1c1ccc(NN=C(C#N)C#N)cc1 [Levosimendan] | pEC50 | 5.72 |
| CN(C)c1ccc2c(c1)Sc1cc(N(C)C)ccc1N2.CS(=O)(=O)O.CS(=O)(=O)O [LMTM, leucomethylene blue mesylate] | pEC50 | 5.66 |

###

Tested on: HEK293 Tau-BiFC cells
Assay: Cell viability of tau-BiFC cells (number of nuclei)
Assay type: cell-based, human
Conditions: Tau-BiFC^ON by tauK18^P301L (5 μg/mL); 48 h of treatment
Experimental: HEK293 Tau-BiFC cells were maintained in Dulbecco’s modified Eagle medium (DMEM) supplemented with 10% fetal bovine serum (FBS), 100 units/mL penicillin, 100 µg/mL streptomycin and 100 µg/mL Geneticin (G418) in a humidified atmosphere containing 5% CO2 at 37 °C. […] For screening of FDA-approved & Passed Phase I Drug Library, tau-BiFC cells were plated on µ-clear 384-well plates. […] BiFC fluorescence intensity and the number of nuclei were quantified using Harmony 3.1 software (PerkinElmer). […]

| COMPOUND | RESULT_UNIT | GI50 |
| --- | --- | --- |
| CN(C)c1ccc2c(c1)Sc1cc(N(C)C)ccc1N2.CS(=O)(=O)O.CS(=O)(=O)O [LMTM, leucomethylene blue mesylate] | µM | 6.6 |

###

GI50 at 48 h for assorted compounds
Experiment: Cell viability of tau-BiFC cells (number of nuclei)
Assay type: cell-based, human
Conditions: human, HEK293 Tau-BiFC cells, Tau-BiFC^ON by forskolin (30 μM); 48 h of treatment

| SMILES_REPRESENTATION | GI50 at 48 h [µM] |
| --- | --- |
| CN(C)c1ccc2nc3ccc(=[N+](C)C)cc-3sc2c1 | 6.2 |
| C[C@@H]1CC(=O)NN=C1c1ccc(NN=C(C#N)C#N)cc1 | 124 |

Hello, the source for this data is paper PMC10073126, in case you need it.
